Answer each item with its documented % Blocking.
- SYSTEM_UNDER_TEST: T1, human CCR8 (human, UniProt P51685 1-355)
- T1 construct: Native CCR8 on human PBMC (CCR8+ CD3+ or CCR8+ CD4+ lymphocytes); also called chemokine (C-C motif) receptor 8
- ASSAY_DETAILS: flow blocking, PBMC CCR8+CD3+; competitor PE-AB13
- Procedure: For blocking studies, 100 μL of the cell suspension were incubated with 10 μg purified isotype control, AB1, AB2, AB3, AB4, AB5, AB8, AB9, AB10, AB11, AB12, AB13, AB14, AB15, and Commercial ABI antibodies, or isotype control, as blocking agents. […]
One number for each entry, in %.

Worked cases, % Blocking given:
AB8 (antibody, V domains shown, Hybridoma monoclonal; also called antibody 8; clone 8) VH: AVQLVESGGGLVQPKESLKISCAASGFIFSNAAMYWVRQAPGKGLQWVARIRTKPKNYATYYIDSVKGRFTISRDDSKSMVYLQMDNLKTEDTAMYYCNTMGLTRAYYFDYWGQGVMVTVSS VL: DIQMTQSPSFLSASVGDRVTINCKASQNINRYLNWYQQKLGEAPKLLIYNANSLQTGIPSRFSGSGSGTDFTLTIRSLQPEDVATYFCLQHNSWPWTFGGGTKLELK	-50.2
AB6 (antibody, V domains shown, Hybridoma monoclonal; Same VH/VL entries as AB5; also called antibody 6; clone 6) VH: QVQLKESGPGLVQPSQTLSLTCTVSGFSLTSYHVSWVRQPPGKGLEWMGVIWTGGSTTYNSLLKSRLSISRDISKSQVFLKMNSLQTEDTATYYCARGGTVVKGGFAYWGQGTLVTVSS VL: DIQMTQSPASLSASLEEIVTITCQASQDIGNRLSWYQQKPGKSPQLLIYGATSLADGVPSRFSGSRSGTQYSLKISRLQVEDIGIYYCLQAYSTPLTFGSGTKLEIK	2.54

Now for the binder whose % Blocking we want.
Indicate the recorded % Blocking value for this binder: AB11 (antibody, V domains shown, Hybridoma monoclonal; also called antibody 11; clone 11) VH: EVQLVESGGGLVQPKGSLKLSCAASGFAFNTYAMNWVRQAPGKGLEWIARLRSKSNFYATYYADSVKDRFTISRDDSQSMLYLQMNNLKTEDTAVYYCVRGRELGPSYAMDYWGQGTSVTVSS VL: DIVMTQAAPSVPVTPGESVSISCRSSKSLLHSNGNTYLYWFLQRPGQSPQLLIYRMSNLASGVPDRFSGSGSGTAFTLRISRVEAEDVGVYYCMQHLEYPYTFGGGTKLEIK
34.6
